# target: benzodiazepine site of the GABA-A receptor
# assay-text: Benzodiazepine Receptor Binding Assay (inhibition of 3H-flunitrazepam binding)
# condition-info: read-out: GABAA Receptor Binding IC50
outcome-measure: IC50 (nM)

A = COCCN1C2=C(C(=O)Nc3sccc3Cl)C(=O)CCN2c2ccc(F)cc21 [Compound 138]
B = CCOCCN1C2=C(C(=O)Nc3cc4ccccc4s3)C(=O)CCN2c2ccc(F)cc21 [Compound 117]
Prompt: Select one. Lower IC50: A or B Please reply using the label of the selected record.
Response: A

====

# target: benzodiazepine site of the GABA-A receptor
# assay-text: Benzodiazepine Receptor Binding Assay (inhibition of 3H-flunitrazepam binding)
# condition-info: read-out: GABAA Receptor Binding IC50
outcome-measure: IC50 (nM)

a = CC(C)N(CCN1C2=C(C(=O)Nc3ccccc3F)C(=O)CCN2c2ccc(F)cc21)C(C)C [Compound 69]
b = CCOCN1C2=C(C(=O)Nc3cc4ccccc4s3)C(=O)CCN2c2ccc(F)cc21 [Compound 115]
Prompt: When their IC50 values are compared, which is larger, a or b ? Please reply using the label of the selected record.
Response: a
(a: 78.4 nM, b: 53.5 nM)

a = CN(C)CCN1C2=C(C(=O)Nc3ccc(F)cc3F)C(=O)CCN2c2ccc(F)cc21 [Compound 55]
b = NCCN1C2=C(C(=O)Nc3ccccc3F)C(=O)CCN2c2ccc(F)cc21 [Compound 57]
Prompt: When their IC50 values are compared, which is larger, a or b ? Please reply using the label of the selected record.
Response: a

A = CN(CCN1C2=C(C(=O)Nc3ccccc3F)C(=O)CCN2c2ccc(F)cc21)Cc1ccc(F)cc1 [Compound 62]
B = COCCN1C2=C(C(=O)Nc3nccs3)C(=O)CCN2c2ccc(F)cc21 [Compound 140]
Prompt: Select one. Lower IC50: A or B Please reply using the label of the selected record.
Response: B
(B: 3.97 nM, A: 7.69 nM)

A = O=C1CCN2C(=C1C(=O)Nc1ccccc1F)N(CCNC(=O)c1cccc(C(F)(F)F)c1)c1cc(F)ccc12 [Compound 75]
B = CCOCN1C2=C(C(=O)Nc3ccc(OC(=O)OC)cc3F)C(=O)CCN2c2ccc(F)cc21 [Compound 100]
Prompt: When their IC50 values are compared, which is larger, A or B ? Please reply using the label of the selected record.
Response: A

====

# target: benzodiazepine site of the GABA-A receptor
# assay-text: Benzodiazepine Receptor Binding Assay (inhibition of 3H-flunitrazepam binding)
# condition-info: read-out: GABAA Receptor Binding IC50
outcome-measure: IC50 (nM)

Worked cases, answers included:
compound	target	IC50 / nM
COCCN1C2=C(C(=O)Nc3ccccc3F)C(=O)CCN2c2cccc(OC)c21 [Compound 96]	benzodiazepine site of the GABA-A receptor	1.8
CC(C)OCCN1C2=C(C(=O)Nc3ccccc3F)C(=O)CCN2c2ccc(F)cc21 [Compound 150]	benzodiazepine site of the GABA-A receptor	0.32
O=C1CCN2C(=C1C(=O)Nc1ccccc1F)N(CCOCc1ccccc1)c1cc(F)ccc12 [Compound 171]	benzodiazepine site of the GABA-A receptor	1.5
CC1(C)OCC(CN2C3=C(C(=O)Nc4ccccc4F)C(=O)CCN3c3ccc(F)cc32)O1 (centres unmarked) [Compound 164]	benzodiazepine site of the GABA-A receptor	2.75
CC(C)NC(=O)NCCN1C2=C(C(=O)Nc3ccccc3F)C(=O)CCN2c2ccc(F)cc21 [Compound 79]	benzodiazepine site of the GABA-A receptor	10.5

a = COCCN1C2=C(C(=O)Nc3nccs3)C(=O)CCN2c2ccc(F)cc21 [Compound 155]
b = CCOCN1C2=C(C(=O)Nc3c(F)cccc3F)C(=O)CCN2c2ccc(F)cc21 [Compound 173]
Prompt: When their IC50 values are compared, which is larger, a or b ? Please reply using the label of the selected record.
Response: a
